# Tested on: Enterobacter cloacae
# Protocol: MICs of the lipopeptides (trifluoroacetic acid salt, TFA) were determined by broth microdilution in cation-adjusted Mueller-Hinton broth (CAMHB) (Oxoid Australia, Thebarton, SA, Australia) according to Clinical and Laboratory Standards Institute standards (Clinical and Laboratory Standards Institute. Performance standards for antimicrobial susceptibility testing; eighteenth informational supplement M100-S18. Wayne, Pa., 2008). Polymyxin B (sulphate) was employed as control. […]
Positions of bridges follow the written chain, without caps; N, C: chain ends. Non-standard residues stand in square brackets, D forms with d. Residues, ends and D or L forms follow the SMILES beside them. *: point of attachment. Benzoyl(4-Ph) = O=C(c1ccc(-c2ccccc2)cc1)*; Decanoyl = CCCCCCCCCC(=O)*; Octanoyl = CCCCCCCC(=O)*; Dab = NCC[C@H](N)C(=O)O; Dap = NC[C@H](N)C(=O)O
reported metric: Minimum inhibitory concentration, Ec FADDI-EC001 (µg/mL)
Express your answer in µg/mL, writing the number without its unit.

{"molecule": "CC(C)C[C@H]1NC(=O)[C@H](CCN)NC(=O)[C@@H](NC(=O)[C@@H](CO)NC(=O)[C@@H](NC(=O)[C@H](CCN)NC(=O)c2ccc(-c3ccccc3)cc2)[C@@H](C)O)CCNC(=O)[C@H]([C@@H](C)O)NC(=O)[C@H](CCN)NC(=O)[C@H](CCN)NC(=O)[C@H]([C@@H](C)O)NC1=O [Compound 11] ({Benzoyl(4-Ph)}-[Dab]T[dS][Dab][Dab][dL]T[Dab][Dab]T; lactam 4-C)", "experimental value": 0.5}
{"molecule": "CCCCCCCC(=O)N[C@@H](CCN)C(=O)N[C@H](C(=O)N[C@@H](C(=O)N[C@H]1CCNC(=O)[C@H]([C@@H](C)O)NC(=O)[C@H](CCN)NC(=O)[C@H](CCN)NC(=O)[C@H]([C@@H](C)O)NC(=O)[C@@H](CC(C)C)NC(=O)[C@H](CCN)NC1=O)[C@H](C)O)[C@@H](C)O [Compound 15] (Octanoyl-[Dab]T[dT][Dab][Dab][dL]T[Dab][Dab]T; lactam 4-C)", "experimental value": 1}

So for CCCCCCCCCC(=O)N[C@@H](CCN)C(=O)N[C@H](C(=O)N[C@@H](CN)C(=O)N[C@H]1CCNC(=O)[C@H]([C@@H](C)O)NC(=O)[C@H](CCN)NC(=O)[C@H](CCN)NC(=O)[C@H]([C@@H](C)O)NC(=O)[C@@H](CC(C)C)NC(=O)[C@H](CCN)NC1=O)[C@@H](C)O [Compound 37] (Decanoyl-[Dab]T[Dap][Dab][Dab][dL]T[Dab][Dab]T; lactam 4-C) , the logged Minimum inhibitory concentration, Ec FADDI-EC001 turned out to be 0.5
